Please provide measured IC50 of in vitro ACE activity inhibition (FAPGG substrate, absorbance at 345 nM) for the entries that follow.
- Target or test system: angiotensin converting enzyme (ACE)
- Test description: cell-based or functional assay
Provide only the numeric value, understood in µg/mL.

Notebook: MVWGP [isolated peptide 3, MVWGP (Met-Val-Trp-Gly-Pro)] , IC50 of in vitro ACE activity inhibition (FAPGG substrate, absorbance at 345 nM) read as 21

Sample YFVP [isolated peptide 1, YFVP (Tyr-Phe-Val-Pro)] ; IC50 of in vitro ACE activity inhibition (FAPGG substrate, absorbance at 345 nM) observed: 250

Sure, the documented IC50 of in vitro ACE activity inhibition (FAPGG substrate, absorbance at 345 nM) for TGSYTEGWS [isolated peptide 4, TGSYTEGWS (Thr-Gly-Ser-Tyr-Thr-Glu-Gly-Trp-Ser)] is 550

Per the record, SGRDP [isolated peptide 2, SGRDP (Ser-Gly-Arg-Asp-Pro)] has IC50 of in vitro ACE activity inhibition (FAPGG substrate, absorbance at 345 nM) of 510

The measurements presented in this section are drawn from patent US20210017240A1.
